Values were extracted from PubChem BioAssay (NCI).

test system: MDA-MB-231 breast; experiment: NCI tumour cell line growth inhibition, 48 h

Smiles code	GI50
COc1cc2c(cc1Nc1nc(Nc3ccsc3C(N)=O)c3cc[nH]c3n1)N(C(=O)CN(C)C)CCC2(C)C	3.22 µM
COc1ccc(-c2nc3ccccn3c2/C=C/C(=O)c2cc(OC)c(OC)c(OC)c2)cc1	5.22 µM
Cc1c(COc2cc(OCc3cccc(C#N)c3)c(CN3C[C@H](O)C[C@@H]3C(=O)O)cc2Cl)cccc1-c1ccc2c(c1)OCCO2	13.8 µM
O=C(Nc1ccccc1)NS(=O)(=O)c1ccc(-n2nc3c(c2-c2ccc(Cl)cc2)Cc2ccccc2-3)cc1	14.7 µM
COc1ccc(Nc2c3ccccc3nc3ccccc23)cc1	2.58 µM
CC(C)CCN=C(N)c1ccc(N2CCN(c3ccc(C(N)=NCCC(C)C)cc3)CC2)cc1	20.6 µM
Cc1cc(N(CCNc2ccnc3cc(Cl)ccc23)Cc2ccco2)nc(Cl)n1	1.68 µM
Oc1[nH]c2ccc(Cl)cc2c1/C=c1/ccc2c(c1)N=C(c1ccc(F)cc1)N=2	1.63 µM
